# Lookup of reported Binding affinity keyed by entry
biological target: Penicillin-binding protein 1B (Escherichia coli K-12); assay: Affinity for penicillin binding protein 1b of Escherichia coli UB1005 (DC0) was evaluated.; set-up: unit not given here

Nc1nc(/C(=N/OCC(=O)O)C(=O)N[C@@H]2C(=O)N3C(C(=O)O)=C(CN4CCN(c5cc6c(cc5F)c(=O)c(C(=O)O)cn6C5CC5)CC4)CS[C@H]23)cs1 | > 100
CCN1CCN(C(=O)N[C@@H](C(=O)N[C@@H]2C(=O)N3C(C(=O)O)=C(CN4CCN(c5cc6c(cc5F)c(=O)c(C(=O)O)cn6C5CC5)CC4)CS[C@H]23)c2ccc(O)cc2)C(=O)C1=O | > 100

Enquiry: // fetch Penicillin-binding protein 1B (Escherichia coli K-12) Binding affinity for CC(C)(O/N=C(\C(=O)N[C@@H]1C(=O)N2C(C(=O)[O-])=C(C[n+]3ccccc3)CS[C@H]12)c1csc(N)n1)C(=O)O
Return: 10

Enquiry: // fetch Penicillin-binding protein 1B (Escherichia coli K-12) Binding affinity for CCN1CCN(C(=O)N[C@@H](C(=O)N[C@@H]2C(=O)N3C(C(=O)O)=C(CSc4nnnn4C)CS[C@H]23)c2ccc(O)cc2)C(=O)C1=O
Return: 10

Enquiry: // fetch Penicillin-binding protein 1B (Escherichia coli K-12) Binding affinity for CO/N=C(\C(=O)N[C@@H]1C(=O)N2C(C(=O)O)=C(CN3CCN(c4cc5c(cc4F)c(=O)c(C(=O)O)cn5C4CC4)CC3)CS[C@H]12)c1csc(N)n1
Return: > 100

Enquiry: // fetch Penicillin-binding protein 1B (Escherichia coli K-12) Binding affinity for CO/N=C(\C(=O)N[C@@H]1C(=O)N2C(C(=O)O)=C(CN3CCNCC3)CS[C@H]12)c1csc(N)n1
Return: 100

* * *

# Lookup of reported log10(MIC) keyed by entry
system: Escherichia coli; assay: In vitro minimum inhibitory concentration was measured against Escherichia coli ATCC 25922 strain.; type: functional
Hello, just confirming the data are log10 of MIC with units of µg/mL.

CC(=O)OCC1=C(C(=O)O)N2C(=O)[C@@H](NC(=O)C(O)c3ccccc3)[C@H]2SC1 (stereo partly specified) | 0.30
CO/N=C(\C(=O)N[C@@H]1C(=O)N2C(C(=O)O)=C(COC(C)=O)CS[C@H]12)c1csc(N)n1 [CEFOTAXIME] | -1.20
Nc1nc(/C(=N/OCC(=O)O)C(=O)N[C@@H]2C(=O)N3C(C(=O)O)=C(CN4CCN(c5cc6c(cc5F)c(=O)c(C(=O)O)cn6C5CC5)CC4)CS[C@H]23)cs1 | -0.30
CC(C)(O/N=C(\C(=O)N[C@@H]1C(=O)N2C(C(=O)O)=C(CN3CCN(c4cc5c(cc4F)c(=O)c(C(=O)O)cn5C4CC4)CC3)CS[C@H]12)c1csc(N)n1)C(=O)O | -0.60
CO/N=C(\C(=O)N[C@@H]1C(=O)N2C(C(=O)O)=C(CN3CCNCC3)CS[C@H]12)c1csc(N)n1 | -0.60

Kindly consider the entry below.
Enquiry: Reported log10(MIC) for CO/N=C(\C(=O)N[C@@H]1C(=O)N2C(C(=O)O)=C(CN3CCN(c4cc5c(cc4F)c(=O)c(C(=O)O)cn5C4CC4)CC3)CS[C@H]12)c1csc(N)n1 : what is it?
Return: -0.90

* * *

# Lookup of reported MIC keyed by entry
system: Klebsiella pneumoniae; assay: In vitro minimum inhibitory concentration was measured against Klebsiella pneumoniae A strain.; assay type: functional
State just the number; it will be interpreted in µg/mL.

Example entries begin here.
CC(=O)OCC1=C(C(=O)O)N2C(=O)[C@@H](NC(=O)C(O)c3ccccc3)[C@H]2SC1 (stereo partly drawn) | 2
CO/N=C(\C(=O)N[C@@H]1C(=O)N2C(C(=O)O)=C(CN3CCNCC3)CS[C@H]12)c1csc(N)n1 | 0.125

Kindly consider the entry below.
Enquiry: Reported MIC for CC(C)(O/N=C(\C(=O)N[C@@H]1C(=O)N2C(C(=O)O)=C(CN3CCN(c4cc5c(cc4F)c(=O)c(C(=O)O)cn5C4CC4)CC3)CS[C@H]12)c1csc(N)n1)C(=O)O : what is it?
Return: 0.5

Hey, just so you know, these numbers are from ChEMBL document CHEMBL1127320.
